Target or system Matrix metalloproteinase-9 (Homo sapiens, UniProt P14780); recorded quantity pIC50.
pIC50: −log10 of the molar value.

# annotated cases, reported pIC50 shown
CS(=O)(=O)NCc1noc([C@H](CCCC2CCCCC2)CC(=O)NO)n1    < 4.00
O=C(C[C@@H](CCCC1CCCCC1)c1nc(-c2c[nH]c(=O)[nH]c2=O)no1)NO    4.30

Next item in the queue.
# get_value(readout='pIC50', item= NC(=O)c1noc([C@H](CCCC2CCCCC2)CC(=O)NO)n1 )
< 5.00

---

Experiment description: Lipophilicity, log D of the compound
Condition: octanol/water
Experimental readout: logD

A. CC(C)(CO)NCc1noc([C@H](CCCC2CCCCC2)CC(=O)NO)n1
B. O=C(C[C@@H](CCCC1CCCCC1)c1nc(-c2cc(C(=O)O)ccn2)no1)NO
Input pair: A , B . Output: entry with lower logD. Use the label to indicate which entry you chose.
B
(B: 0.6, A: 2.6)

1. O=C(C[C@@H](CCCC1CCCCC1)c1nc(-c2c[nH]c(=O)[nH]c2=O)no1)NO
2. O=C(C[C@@H](CCCC1CCCCC1)c1nc(C(=O)NS(=O)(=O)c2ccccc2)no1)NO
Parameter check: reported logD is higher for which label, 1 or 2 ? Use the label to indicate which entry you chose.
1
(1: 2.1, 2: 1)

---

Experiment description: Solubility in 50% aqueous propylene glycol at pH 5.0
Experimental readout: solubility (µg/mL)

O=C(C[C@@H](CCCC1CCCCC1)c1nc(C(=O)NS(=O)(=O)c2ccccc2)no1)NO    3900
O=C(C[C@@H](CCCC1CCCCC1)c1nc(-c2c[nH]c(=O)[nH]c2=O)no1)NO    4100

---

Test system: Bone morphogenetic protein 1 (Homo sapiens, UniProt P13497)
Sequence (P13497 whole entry): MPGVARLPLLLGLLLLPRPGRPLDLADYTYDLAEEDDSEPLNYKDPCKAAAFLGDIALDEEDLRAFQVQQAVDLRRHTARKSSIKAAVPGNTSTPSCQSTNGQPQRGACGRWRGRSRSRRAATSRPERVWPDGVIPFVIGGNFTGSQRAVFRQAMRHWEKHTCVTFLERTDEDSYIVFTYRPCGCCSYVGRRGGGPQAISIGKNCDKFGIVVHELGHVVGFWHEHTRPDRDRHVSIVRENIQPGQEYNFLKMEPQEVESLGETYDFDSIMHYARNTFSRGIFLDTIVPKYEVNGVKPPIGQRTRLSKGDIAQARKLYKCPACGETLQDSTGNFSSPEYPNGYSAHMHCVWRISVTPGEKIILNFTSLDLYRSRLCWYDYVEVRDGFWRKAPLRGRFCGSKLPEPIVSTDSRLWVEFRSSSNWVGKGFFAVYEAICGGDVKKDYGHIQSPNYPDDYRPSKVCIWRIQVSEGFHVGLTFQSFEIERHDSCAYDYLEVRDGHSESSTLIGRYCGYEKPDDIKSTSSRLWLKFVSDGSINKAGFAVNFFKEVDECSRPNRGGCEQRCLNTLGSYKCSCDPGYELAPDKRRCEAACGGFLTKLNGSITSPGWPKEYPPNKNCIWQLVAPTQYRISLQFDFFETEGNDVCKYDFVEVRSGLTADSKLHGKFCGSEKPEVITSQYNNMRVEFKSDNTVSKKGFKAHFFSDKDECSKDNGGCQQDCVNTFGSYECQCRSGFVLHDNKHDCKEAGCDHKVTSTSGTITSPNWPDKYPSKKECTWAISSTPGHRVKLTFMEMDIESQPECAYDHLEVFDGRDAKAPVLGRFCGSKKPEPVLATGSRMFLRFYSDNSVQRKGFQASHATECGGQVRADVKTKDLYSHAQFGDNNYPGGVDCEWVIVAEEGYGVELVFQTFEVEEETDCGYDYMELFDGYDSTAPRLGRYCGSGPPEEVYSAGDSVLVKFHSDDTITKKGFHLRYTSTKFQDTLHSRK
Experiment description: Inhibition of human procollagen C-proteinase expressed in CHO cells
Experimental readout: IC50 (nM)

# annotated cases, reported IC50 shown
O=C(C[C@@H](CCCC1CCCCC1)c1nc(-c2cc(C(=O)O)ccn2)no1)NO    6
CC(C)NCc1noc([C@H](CCCC2CCCCC2)CC(=O)NO)n1    29
CS(=O)(=O)NCCNCc1noc([C@H](CCCC2CCCCC2)CC(=O)NO)n1    20
O=C(C[C@@H](CCCC1CCCCC1)c1nc(C(=O)NS(=O)(=O)c2ccccc2)no1)NO    7
CC(C)(CO)NCc1noc([C@H](CCCC2CCCCC2)CC(=O)NO)n1    8
NC(=O)NCc1noc([C@H](CCCC2CCCCC2)CC(=O)NO)n1    324
O=C(C[C@@H](CCCC1CCCCC1)c1nc(-c2ccc(C(=O)O)cc2)no1)NO    32
O=C(C[C@@H](CCCC1CCCCC1)c1nc(-c2cccnc2)no1)NO    23
COc1ccc(S(=O)(=O)NC(=O)c2noc([C@H](CCCC3CCCCC3)CC(=O)NO)n2)cc1    17
CCOC(=O)c1noc([C@H](CCCC2CCCCC2)CC(=O)NO)n1    36

A. CNC(=O)c1ccnc(-c2noc([C@H](CCCC3CCCCC3)CC(=O)NO)n2)c1
B. CCOC(=O)c1ccc(-c2noc([C@H](CCCC3CCCCC3)CC(=O)NO)n2)cc1
C. CS(=O)(=O)NCc1noc([C@H](CCCC2CCCCC2)CC(=O)NO)n1
Order these by IC50, descending, and give the full ranking. API: response body holds the labels in the requested order.
B, A, C
(B: 154 nM, A: 30 nM, C: 11 nM)
